These measurements were taken from patent US20220177886.

experimental-target: CotE (rCotE LS25, N281-F712) (Clostridium difficile)
experimental-protocol: SPR
run-parameters: tags: His-tagged (Ni-NTA)
pKd: −log10 of the molar value.
measured-metric: pKd

In [3]: df
Out[3]:
                                     binder  comparison_symbol  recorded_number
0  AATGGGTGGGAGGGATGGGTACTA (ssDNA) [CotE H2.2]                  <             6.60
1  CTTGACCTTTGGAATGGGTGGGAGGGAGGGTATCCACAGGTCAACC (ssDNA) [CotE H2.1.2]                  =             8.12
2  CTTGACCTTTGGAATGGGTGGGAGGGATGGGTACTATCCACAGGTCAACC (ssDNA) [CotE H2.1]                  =             7.76
3  CotE H2.1.1 (ssDNA) DNA: CTTGACCTTTGGAATGGGTAGGGAGGGAGGGATACTATCCACAGGTCAACC                  <             6.60
4  CotE D2.1 (ssDNA) DNA: ACTACTCAATGCTCGACATTTCCGCCCCGACGGCCCTCCTAGTGAGGGGAGAGTAGA                  =             7.47
5  CotE D2.2 (ssDNA) DNA: ACTACTCAATGCTCGACATTTCCGCCCCGACGGCCCTCCTAGTGATGGGGAGAGTAGA                  =             6.68
